target: active p38 alpha enzyme (Upstate Biotechnology) (Homo sapiens, UniProt Q16539); construct: purchased Upstate Biotechnology; test: p38α biochemical assay (ATP turnover, luminescent detection, Cambrex PKlight); details: p38α kinase; Table 1 Biological Activity
Sequence (Q16539 whole entry): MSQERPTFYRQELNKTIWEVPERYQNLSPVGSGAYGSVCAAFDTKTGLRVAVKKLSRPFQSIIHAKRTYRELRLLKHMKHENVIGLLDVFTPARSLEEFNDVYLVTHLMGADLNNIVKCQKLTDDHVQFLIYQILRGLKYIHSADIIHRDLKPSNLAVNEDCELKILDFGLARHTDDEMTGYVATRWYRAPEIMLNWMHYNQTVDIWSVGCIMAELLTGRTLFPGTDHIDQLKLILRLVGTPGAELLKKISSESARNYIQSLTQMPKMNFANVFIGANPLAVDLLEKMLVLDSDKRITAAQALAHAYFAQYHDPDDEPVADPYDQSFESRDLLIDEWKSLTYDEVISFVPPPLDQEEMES
pIC50: −log10 of the molar value.
Known pIC50 of a selection of molecules

Compound String: CC(C)NC(=O)c1csc(-c2c(-c3ccc(F)cc3)n[nH]c2C2CCN(C(=O)/C=C/c3ccccc3Cl)CC2)n1
pIC50: < 6.00
--
Compound String: CC(C)NC(=O)c1csc(-c2c(-c3ccc(F)cc3)n[nH]c2C2CCN(C(=O)C(C)(C)O)CC2)n1
pIC50: ≥ 6.00
--
Compound String: CCCCN(Cc1ccccc1)C(=O)c1csc(-c2sc(C)nc2-c2ccc(F)cc2)n1
pIC50: < 6.00

---

Listed below: pIC50 values for each entry.
biological target: active p38 alpha enzyme (Upstate Biotechnology) (Homo sapiens, UniProt Q16539); construct: purchased Upstate Biotechnology; experiment: p38α biochemical assay (ATP turnover, luminescent detection, Cambrex PKlight); settings: p38α biochemical assay, Table 1 Biological Activity
pIC50: −log10 of the molar value.

Compound String: COc1cc(OC)cc(C(=O)NCc2onc(-c3ccc(F)cc3)c2-c2nc(C(=O)NC(C)C)cs2)c1
pIC50: < 6.00
//
Compound String: Cc1ccc(F)cc1C(=O)N1CCN(Cc2nc(-c3ccc(F)cc3)c(-c3nc(C(=O)NC(C)C)cs3)o2)CC1
pIC50: < 6.00
//
Compound String: CC(C)NC(=O)c1csc(-c2oc(CNC(=O)c3ccccc3[N+](=O)[O-])nc2-c2ccc(F)cc2)n1
pIC50: ≥ 6.00
